tested system: FYN (human) (UniProt P06241)
Sequence (P06241 whole entry, looked up): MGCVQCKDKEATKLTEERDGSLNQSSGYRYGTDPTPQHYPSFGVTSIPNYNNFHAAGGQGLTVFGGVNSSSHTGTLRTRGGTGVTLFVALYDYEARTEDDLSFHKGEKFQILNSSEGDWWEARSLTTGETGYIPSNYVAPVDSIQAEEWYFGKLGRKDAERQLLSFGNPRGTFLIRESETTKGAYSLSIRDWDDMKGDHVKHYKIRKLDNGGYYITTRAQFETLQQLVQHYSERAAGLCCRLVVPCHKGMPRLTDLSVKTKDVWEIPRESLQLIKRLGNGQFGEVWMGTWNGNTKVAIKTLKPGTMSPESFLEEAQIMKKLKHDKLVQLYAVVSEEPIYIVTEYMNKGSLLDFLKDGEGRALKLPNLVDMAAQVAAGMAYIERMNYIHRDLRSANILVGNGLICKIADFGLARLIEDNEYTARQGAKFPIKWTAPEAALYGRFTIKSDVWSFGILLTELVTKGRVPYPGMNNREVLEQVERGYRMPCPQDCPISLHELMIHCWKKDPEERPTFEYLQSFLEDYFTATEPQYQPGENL
test name: radiometric filter-binding kinase assay, Kinase HotSpot
condition parameters: compound 0.5 µM; ATP 10 µM
measured endpoint: residual activity

Answered examples (2):
O=C1NC(=O)c2c1c1c3ccccc3[nH]c1n1cncc21: 97.7%
c1ccc2c(-c3ccncc3)c[nH]c2c1: 98.7%

residual activity of "N#C/C(=C\c1ccc(O)c(O)c1)C(=O)NCc1ccccc1" on FYN (human) (UniProt P06241)?
116%

// fetch FYN (human) (UniProt P06241) residual activity for "COc1ccc2c(c1)/C(=C/c1cnc[nH]1)C(O)=N2"
81.2%

Test system FYN (human) (UniProt P06241); read-out residual activity; what value for "O=C1c2ccccc2-c2nc3nnnn3nc21" ?
76.2%

Given the entry "CCCCc1c(-c2ccc(OC)cc2)[nH]c2nccnc12" , what residual activity was observed with FYN (human) (UniProt P06241)?
61.3%

Enter reported residual activity observed with FYN (human) (UniProt P06241) for "CN(C)S(=O)(=O)c1ccc2c(c1)/C(=C/c1cc3c([nH]1)CCCC3)C(=O)N2"
33.1%

====

Documented residual activity across a set of compounds
tested system: NEK6 (human) (UniProt Q9HC98)
Sequence (Q9HC98 whole entry, looked up): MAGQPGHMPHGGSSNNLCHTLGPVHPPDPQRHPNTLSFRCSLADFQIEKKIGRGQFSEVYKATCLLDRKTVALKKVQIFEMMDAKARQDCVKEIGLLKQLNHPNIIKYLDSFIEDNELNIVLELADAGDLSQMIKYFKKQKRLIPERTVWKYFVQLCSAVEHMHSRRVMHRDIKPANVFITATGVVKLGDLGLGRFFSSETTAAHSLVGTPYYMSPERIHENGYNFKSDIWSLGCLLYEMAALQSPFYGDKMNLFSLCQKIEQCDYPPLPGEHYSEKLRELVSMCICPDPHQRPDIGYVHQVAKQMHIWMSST
test name: radiometric filter-binding kinase assay, Kinase HotSpot
condition parameters: compound 0.5 µM; ATP 10 µM
Respond numerically; units are % and should not be typed.

c1ccc2c(-c3ccncc3)c[nH]c2c1: 93.4
CO[C@@H]1[C@H](N(C)C(=O)c2ccccc2)C[C@H]2O[C@]1(C)n1c3ccccc3c3c4c(c5c6ccccc6n2c5c31)C(=O)NC4: 110
COc1ccc2c(c1)/C(=C/c1cnc[nH]1)C(O)=N2: 98.2

May I ask what residual activity has been recorded for "CN(C)CCCn1cc(C2=C(c3c[nH]c4ccccc34)C(=O)NC2=O)c2ccccc21" ?
96.3

Field request: residual activity | item: "N#C/C(=C\c1ccc(O)c(O)c1)C(=O)NCc1ccccc1"
104

// returns reported residual activity for input "COc1ccc(C(=O)Nc2sc3c(c2C(N)=O)CCCC3)cc1OC"
92.7

I am curious: what residual activity value has been reported for "COc1ccc(Cl)cc1NC(=O)Nc1cc(C)nc2ccccc12" ?
97.8

Entry "C[C@@H]1CCN(C(=O)CC#N)C[C@@H]1N(C)c1ncnc2[nH]ccc12" has what residual activity?
83.2

Find the recorded residual activity belonging to "CC(C)(C)c1cc(C=C(C#N)C#N)cc(Br)c1O" and report it.
111

// lookup residual activity for "O=C1NC(=O)c2c1c1c3ccccc3[nH]c1n1cncc21"
88.7

Bench note: what residual activity did "CN(C)c1ccc(/C=C2\C(=O)Nc3ccccc32)cc1" show?
96.9

I'd like to know its residual activity. The compound in question is "O=C(c1cc2cc(O)ccc2[nH]1)c1cc2cc(O)ccc2[nH]1"
99.6

Return reported residual activity; argument: "CN(C)S(=O)(=O)c1ccc2c(c1)/C(=C/c1cc3c([nH]1)CCCC3)C(=O)N2"
90.7

Return reported residual activity; argument: "NC(=O)c1cccc(-c2cc(Nc3ccc(OC(F)(F)F)cc3)ncn2)c1"
97.4

Look up residual activity for this compound: "Ic1cccc(CSc2nnc(-c3ccncc3)o2)c1"
95.4

====

tested system: CDK9 CCNT1 (human) (UniProt P50750+O60563)
Sequence (O60563 whole entry, looked up): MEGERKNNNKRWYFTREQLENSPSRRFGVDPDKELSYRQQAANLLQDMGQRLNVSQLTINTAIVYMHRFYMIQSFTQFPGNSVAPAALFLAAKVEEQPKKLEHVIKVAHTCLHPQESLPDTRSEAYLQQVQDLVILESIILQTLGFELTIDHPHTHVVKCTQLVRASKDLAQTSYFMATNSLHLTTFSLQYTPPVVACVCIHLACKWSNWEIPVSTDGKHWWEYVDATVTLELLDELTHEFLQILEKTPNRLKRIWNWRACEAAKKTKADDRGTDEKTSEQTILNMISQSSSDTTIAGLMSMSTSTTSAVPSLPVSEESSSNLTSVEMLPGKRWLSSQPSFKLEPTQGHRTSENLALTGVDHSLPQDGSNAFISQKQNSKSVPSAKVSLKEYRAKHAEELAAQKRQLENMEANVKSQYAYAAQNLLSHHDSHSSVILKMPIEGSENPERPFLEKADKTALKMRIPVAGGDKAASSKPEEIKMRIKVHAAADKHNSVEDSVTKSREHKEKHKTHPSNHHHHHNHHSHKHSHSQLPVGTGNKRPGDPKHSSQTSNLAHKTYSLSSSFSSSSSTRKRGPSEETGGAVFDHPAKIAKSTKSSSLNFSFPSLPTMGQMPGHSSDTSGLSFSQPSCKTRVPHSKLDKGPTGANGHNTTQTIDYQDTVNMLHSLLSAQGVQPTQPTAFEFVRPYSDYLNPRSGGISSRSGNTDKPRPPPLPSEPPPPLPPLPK
Sequence (P50750 whole entry, looked up): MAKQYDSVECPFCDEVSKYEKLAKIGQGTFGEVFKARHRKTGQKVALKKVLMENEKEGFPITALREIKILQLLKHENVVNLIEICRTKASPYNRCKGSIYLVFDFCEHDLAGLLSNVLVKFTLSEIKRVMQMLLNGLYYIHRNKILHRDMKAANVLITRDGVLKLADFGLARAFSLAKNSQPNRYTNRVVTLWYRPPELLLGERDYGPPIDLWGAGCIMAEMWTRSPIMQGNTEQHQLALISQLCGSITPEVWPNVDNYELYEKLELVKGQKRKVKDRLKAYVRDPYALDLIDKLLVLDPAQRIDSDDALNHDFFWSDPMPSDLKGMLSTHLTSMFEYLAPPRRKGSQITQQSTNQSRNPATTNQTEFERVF
test name: radiometric filter-binding kinase assay, Kinase HotSpot
condition parameters: compound 0.5 µM; ATP 10 µM
measured endpoint: residual activity (%)
Please reply with the bare figure in % and do not write the unit itself.

Field: example entries. Status: answers known.
CN(C)c1ccc(/C=C2\C(=O)Nc3ccccc32)cc1: 94.5
CO[C@@H]1[C@H](N(C)C(=O)c2ccccc2)C[C@H]2O[C@]1(C)n1c3ccccc3c3c4c(c5c6ccccc6n2c5c31)C(=O)NC4: 64.2

Then there is this molecule:
Given "c1ccc2c(-c3ccncc3)c[nH]c2c1" , state its recorded residual activity.
75.2
